tested on: HCT 15 cells; test: Soft-agar colony formation (anchorage-independent growth); conditions: read-out: approximate IC50 in soft agar; HCT 15 cells, soft agar, 10 days
measured parameter: IC50

molecule: Cc1c(C)c2c(c(C)c1O)CCC(C)(C(=O)O)O2 (stereo not shown)
measured parameter: IC50
value reported: ~3000 µM

###

system: N-87; assay: Effect of PDTC on cell proliferation (IC50); format: cell-based; conditions: Gastric carcinoma cells, read-out: IC50 required to inhibit cellular proliferation or induce apoptosis
pIC50: −log10 of the molar value.

compound: S=C(S)N1CCCC1 [PDTC, pyrrolidinedithiocarbamate]
tested system: N-87
pIC50: 4.40
